Tested on: HeLa, human cervical carcinoma cell line
method: MTT cytotoxicity
Format: cell-based
condition-parameters: Homo sapiens
*1 amine or outer side, *2 acyl side, *3 side chain or, on linkers, in order; H or OH if unused. Where a SMILES comes first, the peptide text is derived from it. [ ]: non-standard residue; d: D form. ξ: configuration not given here. Trp(1-(1,1-Me2-allyl)) = C=CC(C)(C)n1cc(C[C@H](N)C(=O)O)c2ccccc21; NMeGlu(4S-Me) = C[C@@H](C[C@@H](C(=O)[*:2])N(C)[*:1])C(=O)[*:3]; Tyr(3-NO2) = N[CH](Cc1ccc(O)c([N+](=O)[O-])c1)C(=O)O; X1 = CC(C)(C1CO1)n1cc(CC(N[*:1])C(=O)[*:2])c2ccccc21; X2 = CC(CC(C(=O)[*:2])N(C)[*:1])C(=O)O; Gly(E-crotyl) = C/C=C/C[C@H](N)C(=O)O; ξNle(4,5-dehydro) = CC=CCC(N)C(=O)O; NMeL = CN[CH](CC(C)C)C(=O)O
The following molecules are shown together with reported IC50 values.

Sample records with IC50:
Item CC=CCC1NC(=O)C(CC(C)C)NC(=O)C(CC(C)C(=O)O)N(C)C(=O)C(C)NC(=O)C(Cc2ccc(O)c([N+](=O)[O-])c2)NC(=O)C(CC(C)C)N(C)C(=O)C(Cc2cn(C(C)(C)C3CO3)c3ccccc23)NC1=O (stereo not drawn) [compound 5, ilamycin D] (cyclo([X2]L[ξNle(4,5-dehydro)][X1][NMeL][Tyr(3-NO2)]A); configuration not given here) with HeLa, human cervical carcinoma cell line - IC50?
> 50 µM

Look up IC50 with HeLa, human cervical carcinoma cell line for this molecule: C=CC(C)(C)n1cc(C[C@@H]2NC(=O)[C@H](C/C=C/C)NC(=O)[C@H](CC(C)C)NC(=O)[C@H](C[C@H](C)C(=O)O)N(C)C(=O)[C@H](C)NC(=O)[C@H](Cc3ccc(O)c([N+](=O)[O-])c3)NC(=O)[C@H](CC(C)C)N(C)C2=O)c2ccccc21 [compound 8, ilamycin F] (cyclo(A[NMeGlu(4S-Me)]L[Gly(E-crotyl)][Trp(1-(1,1-Me2-allyl))][NMeL][Tyr(3-NO2)]))
> 50 µM

Note: attention shifts to another entry.
Notebook entry, HeLa, human cervical carcinoma cell line assay: IC50 of C=CC(C)(C)n1cc(C[C@@H]2NC(=O)[C@H](C/C=C/C)NC(=O)[C@H](CC(C)C)NC(=O)[C@H](CC(C)C)N(C)C(=O)[C@H](C)NC(=O)[C@H](Cc3ccc(O)c([N+](=O)[O-])c3)NC(=O)[C@H](CC(C)C)N(C)C2=O)c2ccccc21 [compound 1, ilamycin B1] (cyclo(A[NMeL]L[Gly(E-crotyl)][Trp(1-(1,1-Me2-allyl))][NMeL][Tyr(3-NO2)])) = ?
> 50 µM

FYI, the data here is from paper PMC5577134.
